biological target: human GABAA α1β3γ2 receptor (Homo sapiens (Human), UniProt P14867+P18507); test: Radioligand binding assay, competition for [3H]Flumazenil, HEK293F cells; details: Ki α1β3γ2 (nM)/Ki α2β2γ1 (nM)
Entries and their γ2/γ1 Selectivity Ratio

Problem: Please provide the recorded γ2/γ1 Selectivity Ratio for "Cc1nc2n(n1)-c1ccc(C(F)(F)F)c(Cl)c1C(c1nc(O)ccc1Cl)=N[C@H]2C" , tested on human GABAA α1β3γ2 receptor (Homo sapiens (Human), UniProt P14867+P18507).
Solution: 1557.5

Problem: Further, for "Cc1nnc2n1-c1ccc(C(F)(F)F)c(Cl)c1C(c1nc(O)ccc1Cl)=N[C@H]2C" ?
Solution: 704.8

Problem: Further, for "C[C@@H]1N=C(c2nc(O)ccc2F)c2c(ccc(C(F)(F)F)c2Cl)-n2cc(C(=O)NC3CC3)nc21" ?
Solution: 800.9

Problem: Further, for "Cc1cnc2n1-c1ccc(C(F)(F)F)c(Cl)c1C(c1nc(O)ccc1F)=N[C@H]2C" ?
Solution: 902.4

Problem: Further, for "Cc1nnc2n1-c1ccc(C(F)(F)F)c(Cl)c1C(c1cc(O)ccc1F)=N[C@H]2C" ?
Solution: 39.3

Problem: Further, for "O=c1ccn2c(n1)CN=C(c1cc(O)ccc1F)c1c-2ccc(Cl)c1Cl" ?
Solution: 21.4

Problem: Further, for "O=c1ccn2c(n1)CN=C(c1cc(O)ccc1F)c1c-2ccc(C(F)(F)F)c1Cl" ?
Solution: 191.3

Problem: Further, for "COC1CN(C(=O)c2ncn3c2CN=C(c2cc(O)ccc2F)c2c-3ccc(C(F)(F)F)c2Cl)C1" ?
Solution: 28.9

Problem: Further, for "Cc1nc2n(n1)-c1ccc(C(F)(F)F)c(Cl)c1C(c1nc(O)ccc1F)=N[C@H]2C" ?
Solution: 977.2

Problem: Further, for "Cc1cn2c(n1)[C@H](C)N=C(c1nc(O)ccc1F)c1c-2ccc(C(F)(F)F)c1Cl" ?
Solution: 772.7

Problem: Further, for "C[C@@H]1N=C(c2cc(O)ccc2F)c2c(ccc(Cl)c2Cl)-n2ccc(=O)nc21" ?
Solution: 182.4

Problem: Further, for "Cc1nnc2n1-c1ccc(Cl)c(Cl)c1C(c1cc(O)ccc1F)=N[C@H]2C" ?
Solution: 41.1

Problem: Further, for "CN1C(=O)CN=C(c2c(F)ccc(O)c2F)c2c1ccc(Cl)c2Cl" ?
Solution: 175.4

Problem: Further, for "Cc1nnc2n1-c1ccc(Cl)c(Cl)c1C(c1c(F)ccc(O)c1F)=N[C@H]2C" ?
Solution: 10.6

Problem: Further, for "Cc1cnc2n1-c1ccc(C(F)(F)F)c(Cl)c1C(c1nc(O)ccc1Cl)=N[C@H]2C" ?
Solution: 853.7

Where do the numbers come from? From patent US12344614B2.
